Provide the reported pKi of each item.
# measured_on: Peptidyl-prolyl cis-trans isomerase FKBP1A (Homo sapiens)
# experiment_summary: Compound was tested for inhibitory activity against FK506 binding protein 12 (FKBP12)
# details: read-out: Ki app
One number for each entry, as −log10 of the molar value.

For each listed entry, give its pKi.
1. CCC(C)(C)C(=O)C(=O)N1CCCC[C@H]1C(=O)O[C@H](CCc1ccccc1)C(C)(C)/C=C/C(=O)C1CCCCC1
2. CC1(C)COC(=O)CCCCCCCCC(=O)c2cccc(c2)C(CCc2ccccc2)OC(=O)[C@@H]2CCCCN2C(=O)C1=O (stereo not given in full)
3. C=CCN(CC=C)C(=O)c1cccc([C@@H](CCc2ccccc2)OC(=O)[C@@H]2CCCCN2C(=O)C(=O)C(C)(C)CC)c1

[6.47, 7.70, 8.30]

* * *

Provide the reported Ki of each item.
# measured_on: Peptidyl-prolyl cis-trans isomerase FKBP1A (Homo sapiens, UniProt P62942)
# Sequence (P62942 whole entry): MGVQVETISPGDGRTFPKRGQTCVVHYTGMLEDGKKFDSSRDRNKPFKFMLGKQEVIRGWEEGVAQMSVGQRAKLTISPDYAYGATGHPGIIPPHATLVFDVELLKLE
# experiment_summary: Compound was tested for inhibitory activity against FK506 binding protein 12 (FKBP12); Value ranges from 190-900 nM
# details: read-out: Ki app
Give bare numbers, in nM.

{"chemical_structure": "CCCC(CCC)C(=O)/C=C/C(C)(C)[C@@H](CCc1ccccc1)OC(=O)[C@@H]1CCCCN1C(=O)C(=O)C(C)(C)CC", "Ki [nM]": 190}

// next entry
Give the reported value of Ki for this record: `CCC(C)(C)C(=O)C(=O)N1CCCC[C@H]1C(=O)O[C@H](CCc1ccccc1)C(C)(C)/C=C/C(=O)c1ccccc1`
190

* * *

# measured_on: Peptidyl-prolyl cis-trans isomerase FKBP1A (Homo sapiens, UniProt P62942)
# experiment_summary: Compound was tested for inhibitory activity against FK506 binding protein 12 (FKBP12)
# details: read-out: Ki app
pKi: −log10 of the molar value.
Could you label it 1 if measured pKi is 7 or higher, and -1 otherwise?

Solved cases below.
{"chemical_structure": "CCC(C)(C)C(=O)C(=O)N1CCCC[C@H]1C(=O)O[C@H](CCc1ccccc1)c1cccc(C(=O)c2ccccc2)c1", "discrete_label": 1}
{"chemical_structure": "CC1(C)COC(=O)CCCCC(=O)CCC(C)(C)[C@@H](CCc2ccccc2)OC(=O)[C@@H]2CCCCN2C(=O)C1=O", "discrete_label": 1}
{"chemical_structure": "C=CC[C@@H]1/C=C(\\C)C[C@H](C)C(=O)OCC(C)(C)C(=O)C(=O)N2CCCC[C@H]2C(=O)O[C@H](CCc2ccccc2)[C@H](C)COC1=O", "discrete_label": -1}
{"chemical_structure": "C=CC[C@@H]1/C=C(\\C)C[C@H](C)C(=O)OCCCC(C)(C)C(=O)C(=O)N2CCCC[C@H]2C(=O)O[C@H](CCc2ccccc2)[C@H](C)COC1=O", "discrete_label": -1}
{"chemical_structure": "CC1(C)COC(=O)CCCCC(=O)/C=C/C(C)(C)[C@@H](CCc2ccccc2)OC(=O)[C@@H]2CCCCN2C(=O)C1=O", "discrete_label": -1}

# next molecule below
Given `C=CC[C@@H]1/C=C(\C)C[C@H](C)C(=O)OCCCC(C)(C)C(=O)C(=O)N2CCCC[C@H]2C(=O)OCCCOC1=O` , state whether its pKi is at least 7.
-1
